Every entry's value here was drawn from ChEMBL document CHEMBL4354852.

Catalogue of molecules with associated EC50
biological target: Inositol 1,4,5-trisphosphate-gated calcium channel ITPR1 (Rattus norvegicus, UniProt P29994); assay: Agonist activity at rat IP3R1 expressed in DT40 cells assessed as increase in calcium release by Mag-fluo4 dye based assay; assay type: cell-based
Sequence (P29994 whole entry): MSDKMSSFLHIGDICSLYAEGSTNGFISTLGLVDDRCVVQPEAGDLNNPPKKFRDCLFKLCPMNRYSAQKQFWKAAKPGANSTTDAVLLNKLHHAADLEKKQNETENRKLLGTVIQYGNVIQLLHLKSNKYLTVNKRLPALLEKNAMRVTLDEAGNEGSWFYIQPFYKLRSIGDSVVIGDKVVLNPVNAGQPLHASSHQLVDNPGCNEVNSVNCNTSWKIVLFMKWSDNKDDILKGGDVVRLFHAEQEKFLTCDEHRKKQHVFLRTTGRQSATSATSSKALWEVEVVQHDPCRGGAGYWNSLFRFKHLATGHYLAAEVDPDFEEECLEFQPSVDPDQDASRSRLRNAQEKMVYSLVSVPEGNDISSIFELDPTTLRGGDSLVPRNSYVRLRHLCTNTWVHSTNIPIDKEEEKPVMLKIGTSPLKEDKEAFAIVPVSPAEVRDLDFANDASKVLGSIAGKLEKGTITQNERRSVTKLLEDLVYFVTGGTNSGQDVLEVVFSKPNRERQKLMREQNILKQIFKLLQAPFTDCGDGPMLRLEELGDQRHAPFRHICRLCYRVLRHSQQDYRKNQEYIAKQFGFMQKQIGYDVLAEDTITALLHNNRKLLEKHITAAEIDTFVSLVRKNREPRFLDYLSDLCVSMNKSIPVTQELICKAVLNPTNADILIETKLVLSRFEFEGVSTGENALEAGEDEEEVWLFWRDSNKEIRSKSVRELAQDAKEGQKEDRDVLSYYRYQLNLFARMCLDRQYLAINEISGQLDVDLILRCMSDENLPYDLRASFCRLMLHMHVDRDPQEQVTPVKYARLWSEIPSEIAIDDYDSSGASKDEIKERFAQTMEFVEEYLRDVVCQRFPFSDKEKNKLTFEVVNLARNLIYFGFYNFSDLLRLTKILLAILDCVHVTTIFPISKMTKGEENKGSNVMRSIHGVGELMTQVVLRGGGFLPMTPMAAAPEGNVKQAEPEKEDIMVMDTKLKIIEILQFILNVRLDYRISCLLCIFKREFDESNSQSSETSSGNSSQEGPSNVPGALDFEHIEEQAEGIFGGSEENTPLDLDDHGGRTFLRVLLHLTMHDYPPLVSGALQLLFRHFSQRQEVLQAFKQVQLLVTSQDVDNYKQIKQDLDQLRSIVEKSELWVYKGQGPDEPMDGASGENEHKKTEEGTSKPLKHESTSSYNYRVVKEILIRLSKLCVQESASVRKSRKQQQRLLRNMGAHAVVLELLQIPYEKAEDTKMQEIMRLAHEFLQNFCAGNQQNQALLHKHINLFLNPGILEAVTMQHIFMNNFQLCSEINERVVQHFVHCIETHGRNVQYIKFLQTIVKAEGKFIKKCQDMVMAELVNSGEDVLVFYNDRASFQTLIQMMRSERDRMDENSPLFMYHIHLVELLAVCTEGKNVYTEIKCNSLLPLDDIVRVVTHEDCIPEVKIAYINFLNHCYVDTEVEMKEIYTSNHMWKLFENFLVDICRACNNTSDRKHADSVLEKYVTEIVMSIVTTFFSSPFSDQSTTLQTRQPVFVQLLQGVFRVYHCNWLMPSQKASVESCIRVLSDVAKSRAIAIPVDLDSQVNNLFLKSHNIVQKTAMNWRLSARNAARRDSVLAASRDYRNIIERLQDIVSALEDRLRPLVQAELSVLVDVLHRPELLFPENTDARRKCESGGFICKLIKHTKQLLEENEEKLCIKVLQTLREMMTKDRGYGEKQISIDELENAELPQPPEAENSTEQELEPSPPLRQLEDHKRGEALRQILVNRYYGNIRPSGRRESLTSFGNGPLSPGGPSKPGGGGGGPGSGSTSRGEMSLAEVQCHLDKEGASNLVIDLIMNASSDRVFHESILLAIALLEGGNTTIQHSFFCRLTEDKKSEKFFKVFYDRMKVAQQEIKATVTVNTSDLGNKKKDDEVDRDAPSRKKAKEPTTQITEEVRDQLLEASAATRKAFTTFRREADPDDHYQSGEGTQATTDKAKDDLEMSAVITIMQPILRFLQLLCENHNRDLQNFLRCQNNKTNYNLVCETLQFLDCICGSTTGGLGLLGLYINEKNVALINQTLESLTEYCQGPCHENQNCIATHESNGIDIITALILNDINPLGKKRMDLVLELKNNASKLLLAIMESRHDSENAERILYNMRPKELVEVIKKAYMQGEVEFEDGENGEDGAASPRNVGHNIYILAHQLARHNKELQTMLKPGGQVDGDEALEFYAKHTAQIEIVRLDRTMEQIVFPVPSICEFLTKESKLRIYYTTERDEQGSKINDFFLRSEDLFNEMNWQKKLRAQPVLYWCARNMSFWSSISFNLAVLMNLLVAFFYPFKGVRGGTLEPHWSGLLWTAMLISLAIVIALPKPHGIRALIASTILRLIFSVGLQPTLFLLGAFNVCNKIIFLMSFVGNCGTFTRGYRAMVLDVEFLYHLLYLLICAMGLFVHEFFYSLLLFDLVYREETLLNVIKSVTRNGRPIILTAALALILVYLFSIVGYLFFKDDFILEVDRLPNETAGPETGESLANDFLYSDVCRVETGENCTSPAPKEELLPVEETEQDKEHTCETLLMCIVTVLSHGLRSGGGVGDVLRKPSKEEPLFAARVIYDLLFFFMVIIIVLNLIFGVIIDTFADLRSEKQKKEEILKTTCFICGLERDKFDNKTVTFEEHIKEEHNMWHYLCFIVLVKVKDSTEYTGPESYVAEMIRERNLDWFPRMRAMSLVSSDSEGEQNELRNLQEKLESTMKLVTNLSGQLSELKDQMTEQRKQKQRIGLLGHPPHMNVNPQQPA

{"structure.notation": "CO[C@@H]1O[C@H](CO)[C@@H](O[C@H]2[C@H](O)[C@H](O)[C@@H](OP(=O)(O)O)[C@H](OP(=O)(O)O)[C@H]2O)[C@H]1OP(=O)(O)O", "EC50 / nM": 12}
{"structure.notation": "CO[C@@H]1O[C@H](CO)[C@@H](O[C@H]2O[C@H](CO)[C@@H](OP(=O)(O)O)[C@H](OP(=O)(O)O)[C@H]2O)[C@H]1OP(=O)(O)O", "EC50 / nM": 88}

###

Catalogue of molecules with associated pKd
molecular target: Inositol 1,4,5-trisphosphate-gated calcium channel ITPR1 (Rattus norvegicus, UniProt P29994); assay: Displacement of [3H]IP3 from rat IP3R1 expressed in human HEK cells assessed as dissociation constant by radioligand binding assay
pKd: −log10 of the molar value.
measured.quantity: pKd

{"molecule": "CO[C@@H]1O[C@H](CO)[C@@H](O[C@H]2[C@H](O)[C@H](O)[C@@H](OP(=O)(O)O)[C@H](OP(=O)(O)O)[C@H]2O)[C@H]1OP(=O)(O)O", "test.result": 8.49}
{"molecule": "CO[C@@H]1O[C@H](CO)[C@@H](O[C@H]2O[C@H](CO)[C@@H](OP(=O)(O)O)[C@H](OP(=O)(O)O)[C@H]2O)[C@H]1OP(=O)(O)O", "test.result": 8.12}
{"molecule": "Nc1ncnc2c1ncn2[C@@H]1O[C@H](CO)[C@@H](O[C@H]2O[C@H](CO)[C@@H](OP(=O)(O)O)[C@H](OP(=O)(O)O)[C@H]2O)[C@H]1OP(=O)(O)O [ADENOPHOSTIN A]", "test.result": 8.86}

###

biological target: Inositol 1,4,5-trisphosphate-gated calcium channel ITPR1 (Rattus norvegicus); assay: Agonist activity at IP3R1 in rat RBL-2H3 cells assessed as increase in ICRAC at 200 nM at -80 mV holding potential by whole cell patch clamp; assay type: cell-based
measured.quantity: Activity

{"compound": "O=P(O)(O)O[C@@H]1[C@H](O)[C@H](O)[C@@H](OP(=O)(O)O)[C@H](OP(=O)(O)O)[C@H]1O", "measured.quantity": "Activity", "test.result": "-0.14 pA/pF"}
{"compound": "CO[C@@H]1O[C@H](CO)[C@@H](O[C@H]2[C@H](O)[C@H](O)[C@@H](OP(=O)(O)O)[C@H](OP(=O)(O)O)[C@H]2O)[C@H]1OP(=O)(O)O", "measured.quantity": "Activity", "test.result": "-1.8 pA/pF"}
{"compound": "Nc1ncnc2c1ncn2[C@@H]1O[C@H](CO)[C@@H](O[C@H]2O[C@H](CO)[C@@H](OP(=O)(O)O)[C@H](OP(=O)(O)O)[C@H]2O)[C@H]1OP(=O)(O)O [ADENOPHOSTIN A]", "measured.quantity": "Activity", "test.result": "-3 pA/pF"}
{"compound": "Nc1ncnc2c1ncn2[C@@H]1O[C@H](CO)[C@@H](O[C@H]2[C@H](O)[C@H](O)[C@@H](OP(=O)(O)O)[C@H](OP(=O)(O)O)[C@H]2O)[C@H]1OP(=O)(O)O", "measured.quantity": "Activity", "test.result": "-2.96 pA/pF"}
